Each entry below carries its recorded pIC50.
Test system: HeLa
Measurement Notes: Proliferation assay (crystal violet), HeLa
Type: cell-based
Test Conditions: Homo sapiens, 96 h, 4 days, read-out: Inhibition of proliferation IC50 HeLa
On this scale, pIC50 is minus log10 of a concentration expressed in M (mol/L).

>>> df
                                   compound  readout_value
0       CCc1ccccc1NC(=O)c1c(C)nsc1Nc1cnccn1           5.06
1  CNC(=O)c1cncc(Nc2snc(C)c2C(=O)Nc2ccc(F)c(F)c2)n1           5.19
2  COc1ncc(NC(=O)c2c(C)nsc2Nc2ccc(C#N)cn2)cc1C           5.72
3  COc1ccc(NC(=O)c2c(C)nsc2Nc2cnc3cccc(C)c3n2)cn1           5.89
4  CCOC(=O)c1cnc(Nc2snc(C)c2C(=O)Nc2ccc(F)c(F)c2)o1           5.00
5  CCNc1cncc(Nc2snc(C)c2C(=O)Nc2ccc(F)c(F)c2)n1           5.60

[in] Please report the measured pIC50 for Cc1nsc(Nc2nc3c(C(F)(F)F)ccnc3s2)c1C(=O)Nc1ccc(F)c(F)c1
[out] 5.82

[in] Please report the measured pIC50 for Cc1nsc(Nc2ccc(C#N)cn2)c1C(=O)Nc1ccc(Cl)c(F)c1
[out] 6.62

[in] Please report the measured pIC50 for Cc1nsc(Nc2cc(C#N)ccn2)c1C(=O)Nc1ccc(Cl)c(F)c1
[out] 6.10

[in] Please report the measured pIC50 for CNC(=O)c1ccc(Nc2snc(C)c2C(=O)Nc2ccc(F)c(F)c2)nn1
[out] 5.36

[in] Please report the measured pIC50 for Cc1nsc(Nc2cnccn2)c1C(=O)Nc1ccc(F)c(F)c1
[out] 5.55

[in] Please report the measured pIC50 for Cc1nsc(Nc2cnc3cc(F)ccc3n2)c1C(=O)Nc1ccc(F)c(F)c1
[out] 6.89

[in] Please report the measured pIC50 for Cc1nsc(Nc2cnc3ccccc3n2)c1C(=O)Nc1ccc(F)c(F)c1
[out] 6.35

[in] Please report the measured pIC50 for CCc1cncc(Nc2snc(C)c2C(=O)Nc2ccc(F)c(F)c2)n1
[out] 5.59

[in] Please report the measured pIC50 for COc1ccc(Oc2ccc(NC(=O)c3c(C)nsc3Nc3cnc4ccccc4n3)cn2)cc1
[out] 5.49

[in] Please report the measured pIC50 for CNC(=O)c1ccnc(Nc2snc(C)c2C(=O)Nc2ccc(F)c(F)c2)c1
[out] 5.00

[in] Please report the measured pIC50 for Cc1nsc(Nc2cc(C#N)ccn2)c1C(=O)Nc1ccc(F)c(F)c1
[out] 5.70
